target: CDK7/Cyclin H/MAT1 (Homo sapiens, UniProt P50613); construct: made in house; host or cells: insect cell; assay: CDK kinase activity mobility shift assay (MSA); type: biochemical; conditions: The CDK may be CDK7; mobility shift assay, 2 mM ATP, 3 nM CDK/Cyclin, 27° C. for 40 min; read-out: IC50 (CDK inhibition)
Sequence (P50613 whole entry): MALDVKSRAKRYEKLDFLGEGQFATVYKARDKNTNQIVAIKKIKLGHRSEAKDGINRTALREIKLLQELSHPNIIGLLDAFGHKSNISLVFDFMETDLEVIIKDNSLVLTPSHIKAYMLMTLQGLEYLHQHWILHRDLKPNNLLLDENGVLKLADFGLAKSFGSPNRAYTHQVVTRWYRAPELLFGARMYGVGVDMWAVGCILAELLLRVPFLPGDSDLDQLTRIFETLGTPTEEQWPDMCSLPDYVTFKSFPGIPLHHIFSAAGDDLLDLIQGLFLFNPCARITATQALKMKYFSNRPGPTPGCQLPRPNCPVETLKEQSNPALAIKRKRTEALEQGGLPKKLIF
Sequence (P51946 whole entry partner): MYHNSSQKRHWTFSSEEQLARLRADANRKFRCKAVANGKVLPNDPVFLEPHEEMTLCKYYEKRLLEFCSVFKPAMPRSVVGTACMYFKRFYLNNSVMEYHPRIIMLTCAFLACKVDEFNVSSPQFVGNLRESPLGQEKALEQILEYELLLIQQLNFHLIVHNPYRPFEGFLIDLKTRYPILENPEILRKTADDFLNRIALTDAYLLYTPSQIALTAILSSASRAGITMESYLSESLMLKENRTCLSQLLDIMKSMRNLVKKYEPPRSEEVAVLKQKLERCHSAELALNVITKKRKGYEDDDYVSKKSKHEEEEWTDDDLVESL
Sequence (P51948 whole entry partner): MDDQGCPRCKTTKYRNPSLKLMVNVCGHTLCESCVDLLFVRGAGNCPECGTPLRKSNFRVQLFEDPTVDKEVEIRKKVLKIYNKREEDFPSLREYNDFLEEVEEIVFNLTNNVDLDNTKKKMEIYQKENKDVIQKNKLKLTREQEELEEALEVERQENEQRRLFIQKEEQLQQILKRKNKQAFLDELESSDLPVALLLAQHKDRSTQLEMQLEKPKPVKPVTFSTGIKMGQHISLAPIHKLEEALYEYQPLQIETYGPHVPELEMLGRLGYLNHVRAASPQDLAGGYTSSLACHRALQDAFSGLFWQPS
Counter-ions that a name gives are not always drawn.
Reported IC50 values for a set of molecules

Would you please look over these solved cases?
molecule | experimental system | measurement type | result
CC(C)n1cnc2c(NCc3ccccc3-n3cccn3)nc(N3CCC(C(=O)N(C)C)CC3)nc21 | CDK7/Cyclin H/MAT1 (Homo sapiens, UniProt P50613) | IC50 | > 1 µM
CC(C)c1n[nH]c2c(NCc3ccccc3-n3cccn3)nc(NC3CCNCC3)nc12 | CDK7/Cyclin H/MAT1 (Homo sapiens, UniProt P50613) | IC50 | < 0.1 µM

# input For "NC1CCN(c2nc(NCc3ccccc3-n3cccn3)c3ncn(C4CCCC4)c3n2)CC1" , what is its reported IC50?
# output < 0.1 µM

# input Ok, now "CC(C)n1cnc2c(NCc3ccccc3-n3cccn3)nc(N3CCC[C@H](N)C3)nc21"
# output < 0.1 µM

# input Okay, and CC(C)n1cnc2c(NCc3ccccc3-n3cccn3)nc(NCC3(O)CCNCC3)nc21 [Compound I-14, trihydrochloride] ?
# output 0.1 to 0.5 µM

# input Now give it for "CC(C)n1cnc2c(NCc3ccccc3-n3cccn3)nc(N3CCC(CN)CC3)nc21" too.
# output 0.1 to 0.5 µM
